Tested on: Primary human T-cells
experiment.description: Primary Human T-Cell Proliferation Assay Stimulated with IL-2 (CellTiter-Glo)
Type: cell-based
experimental.context: primary human T-cell proliferation stimulated with IL-2; read-out: IC50, Example 42
Reported pIC50 values are given for each entry in this list.
Remember the convention: pIC50 equals -log10 of concentration in molar.

# annotated cases, reported pIC50 shown
CN1CCN(c2ccc(Nc3ncc(F)c(Nc4ccc(OCC#N)cc4)n3)cc2S(N)(=O)=O)CC1 [Compound I-9] ... 6.31
N#CCOc1ccc(Nc2nc(Nc3cccc(S(N)(=O)=O)c3)ncc2Br)cc1 [Compound I-13] ... 8.30
CCN(CC)CCNS(=O)(=O)c1ccc(Nc2ncc(F)c(Nc3ccc(OCc4csc(C)n4)cc3)n2)cc1 [Compound I-284] ... 6.38

Proceed to the following item.
Enquiry: Fill in the blank: the reported pIC50 of CNS(=O)(=O)c1cc(Nc2ncc(F)c(Nc3cccc(OCc4cccnc4)c3)n2)ccc1C [Compound I-184] is ____.
Return: 5.59

---

System: up-regulation of ICAM-1 (CD54) by IFNγ in A549 lung epithelial cells
experiment.description: A549 Epithelial Line Stimulated with IFNγ (ICAM-1 surface expression, FACS)
Format: cell-based, human
experimental.context: A549 epithelial line stimulated with IFNγ; ICAM-1 expression by FACS; read-out: IC50, Example 43
Reported pIC50 values are given for each entry in this list.
Remember the convention: pIC50 equals -log10 of concentration in molar.

# annotated cases, reported pIC50 shown
COc1cc(Nc2ncc(F)c(Nc3ccc(OC(C)C#N)c(C)c3)n2)ccc1S(N)(=O)=O (racemic) ... 5.29
Cc1cc(Nc2nc(Nc3ccc(S(N)(=O)=O)cc3)ncc2F)ccc1OC(C)C#N (racemic) ... 5.10
COc1cc(Nc2ncc(F)c(Nc3ccc(OC(C)C#N)cc3)n2)ccc1S(N)(=O)=O (racemic) ... 5.46
N#CCOc1ccc(Nc2nc(Nc3cccc(S(N)(=O)=O)c3)ncc2Br)cc1 ... 5.87
Cc1ccc(Nc2ncc(F)c(Nc3ccc(OCc4cccnc4)cc3)n2)cc1S(N)(=O)=O ... 5.17
Cc1cc(Nc2nc(Nc3ccc(C)c(S(N)(=O)=O)c3)ncc2F)ccc1OC(C)C#N (racemic) ... 5.45

Enquiry: GET /values?readout=pIC50&system=up-regulation of ICAM-1 (CD54) by IFNγ in A549 lung epithelial cells&item= Cc1ccc(Nc2nc(Nc3ccc(S(N)(=O)=O)cc3)ncc2F)cc1OCC(=O)N1CCOCC1
Return: 5.53

---

System: Primary human T-cells
experiment.description: Primary Human T-Cell Proliferation Assay Stimulated with IL-2 (CellTiter-Glo)
Type: cell-based
experimental.context: Homo sapiens, T-cell, primary human T-cells stimulated with IL-2, proliferation; read-out: IC50, Example 42
Reported pIC50 values are given for each entry in this list.
Remember the convention: pIC50 equals -log10 of concentration in molar.

Cc1ccc(Nc2ncc(F)c(Nc3ccc4ccccc4n3)n2)cc1S(N)(=O)=O [VII-64] ... 5.42
NS(=O)(=O)c1ccc(Nc2ncc(F)c(NCCc3ccc(-n4ccnc4)cc3)n2)cc1 [III-90] ... 6.33
COc1ccc(Nc2nc(Nc3ccc(N4CCN(C)CC4)c(S(N)(=O)=O)c3)ncc2F)cc1Cl [VI-116] ... 6.76

Proceed to the following item.
Enquiry: Fill in the blank: the reported pIC50 of Cc1ccc(Nc2ncc(F)c(Nc3ccc(C(=O)N4CCSCC4)cc3)n2)cc1S(N)(=O)=O [IX-35] is ____.
Return: 6.06
